Taken from patent US8673862.

Assayed target: T1, angiotensin converting enzyme (ACE) (UniProt P12821)
T1 chain: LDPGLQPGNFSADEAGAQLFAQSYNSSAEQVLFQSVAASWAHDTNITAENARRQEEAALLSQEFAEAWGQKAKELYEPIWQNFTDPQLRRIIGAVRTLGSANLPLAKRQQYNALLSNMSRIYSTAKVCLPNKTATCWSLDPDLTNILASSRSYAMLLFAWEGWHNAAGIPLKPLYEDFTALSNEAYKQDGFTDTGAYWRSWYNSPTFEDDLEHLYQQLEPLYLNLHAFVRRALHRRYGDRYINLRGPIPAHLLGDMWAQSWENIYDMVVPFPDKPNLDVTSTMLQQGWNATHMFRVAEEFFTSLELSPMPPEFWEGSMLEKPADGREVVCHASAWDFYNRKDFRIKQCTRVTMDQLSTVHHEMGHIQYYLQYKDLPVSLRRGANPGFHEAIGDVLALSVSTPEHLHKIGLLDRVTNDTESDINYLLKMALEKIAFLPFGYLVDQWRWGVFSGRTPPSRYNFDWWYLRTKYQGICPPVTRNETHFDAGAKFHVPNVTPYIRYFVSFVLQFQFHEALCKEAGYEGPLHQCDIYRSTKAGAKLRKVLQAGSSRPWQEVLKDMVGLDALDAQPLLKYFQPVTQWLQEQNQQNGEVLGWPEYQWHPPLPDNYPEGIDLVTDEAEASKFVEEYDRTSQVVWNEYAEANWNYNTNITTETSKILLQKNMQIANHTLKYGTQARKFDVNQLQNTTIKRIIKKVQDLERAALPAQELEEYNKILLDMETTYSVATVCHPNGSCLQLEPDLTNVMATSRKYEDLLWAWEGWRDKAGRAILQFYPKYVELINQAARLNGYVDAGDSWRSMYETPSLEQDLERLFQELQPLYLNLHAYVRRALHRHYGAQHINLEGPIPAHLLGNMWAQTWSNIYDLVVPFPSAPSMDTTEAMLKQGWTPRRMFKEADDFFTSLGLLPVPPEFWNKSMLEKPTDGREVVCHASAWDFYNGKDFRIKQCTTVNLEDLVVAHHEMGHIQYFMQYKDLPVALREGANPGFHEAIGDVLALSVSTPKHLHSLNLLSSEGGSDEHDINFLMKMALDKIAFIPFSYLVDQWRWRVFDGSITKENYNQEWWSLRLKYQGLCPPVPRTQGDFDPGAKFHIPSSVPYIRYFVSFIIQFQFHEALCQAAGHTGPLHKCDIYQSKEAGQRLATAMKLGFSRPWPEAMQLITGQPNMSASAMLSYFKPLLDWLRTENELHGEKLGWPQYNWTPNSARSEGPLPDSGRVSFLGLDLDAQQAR
Protocol: other, ACE inhibition
pIC50: −log10 of the molar value.
Give yes (1) when the value for pIC50 is at least 4. Give no (0) when it is less.

Could you please find out whether TYA has pIC50 that meets 4 or exceeds it?
no (0)

Now consider YY and answer again.
no (0)

Now the same for VGGS
yes (1)

// same read-out, input: GNF
yes (1)
